# Test system: SNB-75
# experimental details: NCI tumour cell line growth inhibition, 48 h
Activity calls are given as the source filed them. Rule as the data show it: active = GI50 up to about 1.1 µM and inactive = higher.
Please reply with one of these outcomes: Yes for active, No for inactive

Previously resolved entries follow.
- C=C1C(=O)OC2CC(C)C3(O)CCC(=O)C3(C)CC12 (centres undefined): No
- COC(=O)[C@@]12OC[C@]34[C@H]([C@@H](O)[C@@H]1O)[C@@]1(C)CC(=O)C(OC(C)=O)=C(C)[C@@H]1C[C@H]3OC(=O)[C@H](OC(=O)C=C(C)C)[C@@H]24: No
- CCSC1=C(C#N)C2(CCCCC2)C2=C(O)CC(C)(C)CC2=N1: No
- CC(C)(C)c1cc(-c2cc(C(C)(C)C)n(-c3ccccc3)n2)nn1-c1ccccc1: No
- CN(C)c1ccc(C(=NN)c2ccc(N(C)C)cc2)cc1: Yes
- COc1cc(C2c3cc4c(cc3OC(O)C2C)OCO4)cc(OC)c1O (centres undefined): No
- COC(=O)N1N=C(c2ccccc2)C1c1ccccc1 (centres undefined): No
- CCCCCCCCCCCCCCCCP(=O)(O)OP(=O)(O)OCC1OC(n2cnc3c(N)ncnc32)C(O)C1O (centres undefined): No

Then this compound:
Please let me know the test result on file for O=C(O)C(C1NCCS1)N1C(=O)c2ccccc2C1=O (centres undefined) . No

Ref: ChEMBL document CHEMBL1201862
